Reference source for all entries: ChEMBL document CHEMBL1201861

# Tested on: SH-4;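 note: growth inhibition of SH-4 cells, read out with a cell viability assay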
# assay-protocol: cells
# Format: functional, cell-based, Homo sapiens
# recorded-conditions: Homo sapiens, SH-4
# Description: SANGER: Inhibition of human SH-4 cell growth in a cell viability assay.
Provide the reported IC50 of each item.
Numbers only, in nM.

smiles-code: CCC(=O)N1CCN(c2ccc(-n3c(=O)ccc4cnc5ccc(-c6cnc7ccccc7c6)cc5c43)cc2C(F)(F)F)CC1
value-unit: nM
IC50: 35.8
--
smiles-code: CC(=O)O[C@@]12CO[C@@H]1C[C@H](O)[C@@]1(C)C(=O)[C@H](O)C3=C(C)[C@@H](OC(=O)[C@H](O)[C@@H](NC(=O)OC(C)(C)C)c4ccccc4)C[C@@](O)([C@@H](OC(=O)c4ccccc4)[C@H]21)C3(C)C
value-unit: nM
IC50: 3.22

Input line: Give the observed IC50 of CO[C@H]1C[C@@H]2CC[C@@H](C)[C@@](O)(O2)C(=O)C(=O)N2CCCC[C@H]2C(=O)O[C@H]([C@H](C)C[C@@H]2CC[C@@H](O)[C@H](OC)C2)CC(=O)[C@H](C)/C=C(\C)[C@@H](O)[C@@H](OC)C(=O)[C@H](C)C[C@H](C)/C=C/C=C/C=C/1C for SH-4.
Output line: 4.34

###

For each record, write down the corresponding IC50.
# Test system: HH
# assay-protocol: cells
# Assay type: functional, cell-based
# recorded-conditions: Homo sapiens
# Description: SANGER: Inhibition of human HH cell growth in a cell viability assay.
One number for each entry, in µM.

compound: Cn1cncc1[C@@](N)(c1ccc(Cl)cc1)c1ccc2c(c1)c(-c1cccc(Cl)c1)cc(=O)n2C [TIPIFARNIB]
IC50, µM: 0.191
//
compound: Cc1cc([C@@H](C)Nc2ccccc2C(=O)O)c2nc(N3CCOCC3)cc(=O)n2c1 [AZD-6482]
IC50, µM: 0.962
//
compound: CCC(=O)N1CCN(c2ccc(-n3c(=O)ccc4cnc5ccc(-c6cnc7ccccc7c6)cc5c43)cc2C(F)(F)F)CC1 [TORIN1]
IC50, µM: 0.135

Input line: Return reported IC50. Input compound: COc1cc([C@@H]2c3cc4c(cc3[C@@H](O[C@@H]3O[C@@H]5CO[C@@H](C)O[C@H]5[C@H](O)[C@H]3O)[C@H]3COC(=O)[C@H]23)OCO4)cc(OC)c1O [ETOPOSIDE]
Output line: 4.44

###

# Test system: MFE-280;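 note: growth inhibition of MFE-280 cells, determined with a cell viability readout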
# assay-protocol: cells
# Type: functional, cell-based, Homo sapiens
# recorded-conditions: Homo sapiens, MFE-280
# Description: SANGER: Inhibition of human MFE-280 cell growth in a cell viability assay.
Assign IC50 to each entry below.

compound: O=C1N=C(NCc2cccs2)S/C1=C\c1ccc2ncccc2c1
observed-measurement: > 5 µM

Provide IC50 values for the following items, in order.
1. CC(=O)O[C@@]12CO[C@@H]1C[C@H](O)[C@@]1(C)C(=O)[C@H](O)C3=C(C)[C@@H](OC(=O)[C@H](O)[C@@H](NC(=O)OC(C)(C)C)c4ccccc4)C[C@@](O)([C@@H](OC(=O)c4ccccc4)[C@H]21)C3(C)C [DOCETAXEL]
2. COc1cc([C@@H]2c3cc4c(cc3[C@@H](O[C@@H]3O[C@@H]5CO[C@@H](C)O[C@H]5[C@H](O)[C@H]3O)[C@H]3COC(=O)[C@H]23)OCO4)cc(OC)c1O [ETOPOSIDE]
3. CC(=O)O[C@@H]1[C@@H](OC(C)=O)[C@@H](O)[C@H](Oc2c(-c3ccc(O)cc3)oc3cc(O)cc(O)c3c2=O)O[C@H]1C

Output line:
["> 0.01 µM", "> 16 µM", "> 10 µM"]

Input line: Quick one: give measured IC50 for CN(c1ncccc1CNc1nc(Nc2ccc3c(c2)CC(=O)N3)ncc1C(F)(F)F)S(C)(=O)=O [PF-00562271]
Output line: > 2.56 µM
